Assay: Nrf2 qHTS screen for inhibitors: Validation (AID 493153)
Details: A549 ARE-Fluc reporter, 18-24 h; measured here: cytotoxicity max response
Inconclusive results are not listed.
readoutKind: viability change (%)
Give a bare numeral; the unit % is implied.

Entry under review: N[C@@H](Cc1cnc[nH]1)C(=O)O . Reported viability change?
0.846

Quick one: viability change of C[N+]1(CCCCC[N+]2(C)CCCC2)CCCC1 ?
1.12

Data request, read-out viability change, for O=C1CCC(c2ccc(-n3ccnc3)cc2)=NN1
9.43

Name the reported viability change value associated with the molecule N[C@H](CO)C(=O)O
0.276

viability change lookup needed for CCC(NC(C)C)C(O)c1ccc(O)c(O)c1 (stereo not given) , thanks.
-19.1

Record request: viability change value, item CNCCC(Oc1ccccc1C)c1ccccc1 (stereo not given)
3.06

Would you kindly share the measured viability change for Nc1cc(Cl)c(NC2=NCCN2)c(Cl)c1 ?
1.6

Quick one: viability change for CC(C)COC(=O)OCN1C(=O)CN(CCN2CC(=O)N(COC(=O)OCC(C)C)C(=O)C2)CC1=O ?
-6.78

Quick one: viability change of CC1(C)CCC(NC(=O)[C@@H](N)CCC(=O)O)CC1 ?
2.98

Looking for the measured viability change of CC[C@H](C)C(=O)O[C@H]1CCC=C2C=C[C@H](C)[C@H](CC[C@@H]3C[C@@H](O)CC(=O)O3)[C@H]21 , can you help?
-16.9

###

Tested on: HaCat
Assay: Cytotoxic Profiling of Annotated Libraries Using Quantitative High-Throughput Screening (AID 1296008); also: nearly all actives have a fitted effect of over 60% in size
Settings: Five cell lines viability, CellTiter-Glo ATP luminescence, 48-72 h
Inconclusive results are not listed. Active and inactive are the calls of the source. Calls come from the whole dose curve; as a rule, active = well fitted inhibition curve with a large enough effect; inconclusive = small, poorly fitted or top-dose-only effect; inactive = flat fitted curve, though single readings scatter.
// allowed return values: 1 for active, -1 for inactive

For CN(C/C=C/c1ccccc1)Cc1cccc2ccccc12 , what call appears in the results of this test?
1

Call for entry CC(O)(P(=O)(O)O)P(=O)(O)O :
-1

Record request — test call for Cc1c(C)n(Cc2ccccc2)c2ccc(C(=O)OCCN(C)C)cc12
-1

Lab log entry: CC(=O)OCC(=O)[C@@]12N=C(C)O[C@@H]1C[C@H]1[C@@H]3CCC4=CC(=O)C=C[C@]4(C)[C@H]3[C@@H](O)C[C@@]12C — outcome as called in the assay?
-1

Which outcome did this test record for the molecule CC(=O)N/N=C/c1ccc([N+](=O)[O-])o1 ?
-1

Record request — test call for CC(C)n1nc(-c2cc3cc(O)ccc3[nH]2)c2c(N)ncnc21
1

Hi team, can someone confirm the assay call for CCOC(=O)OC(C)OC1=C(C(=O)Nc2ccccn2)N(C)S(=O)(=O)c2ccccc21 (centres undefined) ?
-1

Outcome? Oc1c(I)cc(Cl)c2cccnc12
-1

Name the outcome recorded for Cc1cc(O)c(C(C)C)cc1Cl in the assay.
-1

Assay result, entry O=C(O)CNC(=O)c1ccccc1 — outcome?
-1

Give the logged outcome of this assay for the following molecule: COc1c2occc2c(OC)c2c(=O)cc(C)oc12
-1

Name the outcome recorded for Oc1c(I)cc(I)c2cccnc12 in the assay.
-1

Check the results log: what was the call for CCCN1CCCC[C@H]1C(=O)Nc1c(C)cccc1C ?
-1

Assay outcome for OC(CCN1CCCCC1)(c1ccccc1)c1ccccc1 : what was it?
-1

###

Assay: qHTS of pediatric cancer cell lines to identify multiple opportunities for drug repurposing: Primary screen for SJ-GBM2 cells (AID 1347091)
Conditions: SJ-GBM2 viability, CellTiter-Glo luminescence, 48 h; series mostly up to 46 µM
Records with an inconclusive call do not appear. Calls of active or inactive are those of the source. Calls follow the shape of the dose curve; as a rule, active = well fitted cell-killing curve with a large enough effect; inconclusive = small, poorly fitted or top-dose-only effect; inactive = no such curve, though single readings can be large or run the other way.
Your answer must be one of the following: active, inactive

Query: recorded result category for O=C(Nc1ccc(Oc2ccc(Cl)cc2)c(Cl)c1)c1cc(I)cc(I)c1O in this test
active

Returns: the outcome recorded for CCCOC(C(=O)OC1CCN(C)CC1)(c1ccccc1)c1ccccc1 in this assay.
inactive

# fetch the recorded call for CCOC(=O)c1cccc(N)c1 here
inactive

Test call for this molecule, please: Cc1cccc(C)c1NC(=O)CN1CCN(CCCC(c2ccc(F)cc2)c2ccc(F)cc2)CC1
active

Test call for this molecule, please: CCC(C(=O)OCCN(CC)CC)c1ccccc1 (configuration not stated)
inactive

Query: recorded result category for CCCCCCCCCCCCCCCCCC(=O)OCC(O)CO (configuration not stated) in this test
inactive

Identify the outcome logged in this assay for the molecule shown: CCOC(=O)/C=C(C)/C=C/C=C(C)/C=C/c1c(C)cc(OC)c(C)c1C
inactive

Hello, I am checking results. What call was entered for CC(=O)OCC(=O)[C@@]12OC(C)(C)O[C@@H]1C[C@H]1[C@@H]3C[C@H](F)C4=CC(=O)C=C[C@]4(C)[C@@]3(F)[C@@H](O)C[C@@]12C ?
inactive

Given COc1cc2c(cc1OC)[C@@H]1CC(=O)[C@@H](CC(C)C)CN1CC2 , state the outcome it received in this test.
inactive

For Cc1ccccc1C(=O)Nc1ccc(C(=O)N2CCCC(N(C)C)c3ccccc32)cc1 (configuration not stated) , what call appears in the results of this test?
active

I would be grateful if you could indicate the recorded call for CC(C)NC[C@@H](O)COc1cccc2ccccc12 .
inactive

Which outcome was assigned to Nc1ccc(C(=O)O)cc1 in this test?
inactive

Tell me the recorded outcome of this test for CC(=O)OCC(=O)[C@@]12N=C(C)O[C@@H]1C[C@H]1[C@@H]3CCC4=CC(=O)C=C[C@]4(C)[C@H]3[C@@H](O)C[C@@]12C .
inactive

Field: outcome | Entry: CN(C)CCOc1ccccc1Cc1ccccc1
inactive

What did this assay record as the result for Cc1c(C)n(CCN(C)C)c2ccc(C(=O)OCCN(C)C)cc12 ?
inactive

Please let me know the test result on file for C[C@H](O)C(=O)Nc1c(I)c(C(=O)NC(CO)CO)c(I)c(C(=O)NC(CO)CO)c1I .
inactive

Dear colleague, could you share the recorded outcome for CCCCC(=O)O[C@]1(C(=O)CO)CC[C@H]2[C@@H]3CCC4=CC(=O)CC[C@]4(C)[C@H]3[C@@H](O)C[C@@]21C when you have a moment?
inactive

Query: recorded result category for N[C@H](Cc1c[nH]c2ccccc12)C(=O)O in this test
inactive

State the result this test recorded for CCN(CC)C(=O)N1CCN(C)CC1 .
inactive

Fill in: this test's call for CC(C)(C)CC(C)(C)c1ccc(OCCOCC[N+](C)(C)Cc2ccccc2)cc1 is ___
active

Check the results log: what was the call for CN=C(NC#N)Nc1ccc(C2=NNC(=O)CC2C)cc1 (configuration not stated) ?
inactive

Recorded test outcome, item CCN(CC)C(=O)/C(C#N)=C/c1cc(O)c(O)c([N+](=O)[O-])c1
inactive

Answer briefly: the call reported for NC(=O)CC[C@@H]1NC(=O)[C@H](Cc2ccccc2)NC(=O)[C@H](Cc2ccc(O)cc2)NC(=O)CCSSC[C@@H](C(=O)N2CCC[C@H]2C(=O)N[C@@H](CCCN=C(N)N)C(=O)NCC(N)=O)NC(=O)[C@H](CC(N)=O)NC1=O in this assay.
inactive

What was the test verdict on O=C(CCN1CCC(c2ccccc2)C1)c1ccc2c(c1)OCCO2 (configuration not stated) ?
inactive

Please state the recorded outcome for this molecule: COc1cc(C(=S)N2CCOCC2)cc(OC)c1OC
inactive

Test call, this molecule: Cc1c(C(C)C)c(=O)n(-c2ccccc2)n1C
inactive

Entry CCOc1ccc2nc3cc(N)ccc3c(N)c2c1 : call = ?
inactive

Would you mind telling me which call this test gave CN1[C@@H]2CC[C@H]1CC(OC(=O)c1c[nH]c3ccccc13)C2 (some centres not stated) ?
inactive

Hi, do you know how C=C(CC)C(=O)c1ccc(OCC(=O)O)c(Cl)c1Cl came out in this test?
inactive

What classification did CC(C)(CO)[C@@H](O)C(=O)NCCCO end up with in this test?
inactive

Recorded test outcome, item Cc1ccc(C(=O)C(C)CN2CCCCC2)cc1 (configuration not stated)
inactive

Assay result, entry Cc1ccnc(NS(=O)(=O)c2ccc(N)cc2)n1 — outcome?
inactive

Call for entry COC(=O)CCc1ccc(OCC(O)CNC(C)C)cc1 (configuration not stated) :
inactive

Recorded test call requested for COc1c2occc2c(OC)c2c(=O)cc(C)oc12
inactive

Can you look up the reported call for CCN1CCCC1=O for me?
inactive

Answer briefly: the call reported for CN1CCN(C(c2ccccc2)c2ccccc2)CC1 in this assay.
inactive

Just curious, what result did c1ccc(-c2ccc(C(c3ccccc3)n3ccnc3)cc2)cc1 (configuration not stated) get here?
inactive

Outcome? C#C[C@]1(O)CC[C@H]2[C@@H]3CCC4=CC(=O)CC[C@@H]4[C@H]3CC[C@@]21C
inactive

Please indicate how the test categorized C=C1C(=C/C=C2\CCC[C@]3(C)[C@@H]([C@H](C)/C=C/[C@@H](O)C4CC4)CC[C@@H]23)C[C@@H](O)C[C@@H]1O .
inactive

How did this test come out for NC[C@H]1O[C@H](O[C@H]2[C@H](O)[C@@H](O[C@H]3O[C@H](CO)[C@@H](O)[C@H](N)[C@H]3O)[C@H](N)C[C@@H]2N)[C@H](N)[C@@H](O)[C@@H]1O ?
inactive

What did this assay record as the result for CCCCCC=CCC=CCCCCCCCC(=O)OCC ?
inactive

Tell me the recorded outcome of this test for CNCC[C@@H](Oc1ccccc1C)c1ccccc1 .
inactive
